Experiment: Half-life time was determined
Format: ADME
Metric: half-life (min)
Just the number please, in min, no unit attached.

QUERY: Dear colleague, I am looking for the recorded half-life of the following molecule: CCc1c2c(nc3ccc(OC(=O)N(C)c4cc([N+](=O)[O-])ccc4OC4CC(C(=O)O)C(O)C(O)C4O)cc13)C1CC3=C(COC(=O)[C@]3(O)CC)C(=O)N1C2 (stereo partly specified)
RESULT: 12.7
